# System: primary rat microglia
# protocol_description: Cell toxicity (dead cells, size <150 μm2) in coated fibrin (cFib) assay;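 as to Fibrin % cell toxicity: share of dead cells sized under 150 µm2 at 10 µM in fibrin-stimulated microglia HTS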
# settings: primary microglia HTS, fibrin stimulation, toxicity = cell size <150 μm2
// reported Fibrin % cell toxicity per item

{"columns": ["compound", "Fibrin % cell toxicity (%)"],
 "data": [
  ["Cc1oncc1C(=O)Nc1ccc(C(F)(F)F)cc1 [Lefunamide, Leflunomide]", 0],
  ["C[C@@H]1O[C@@H]1P(=O)(O)O", 1],
  ["C[C@@H]1CN([C@H]2CC[C@](C#N)(c3ccc(F)cc3)CC2)CC[C@]1(C(=O)O)c1ccccc1", 1],
  ["N=C(N)N/N=C/c1c(Cl)cccc1Cl [Guanabenz Acetate]", 0],
  ["CC(=O)N(CC(O)CO)c1c(I)c(C(=O)NCCO)c(I)c(C(=O)NCC(O)CO)c1I (centres unmarked)", 0]
]}

###

# Test system: fibrin-induced microglia activation
# protocol_description: Image-based assay of fibrin-induced microglia activation (HTS and dose response)
# Format: cell-based, rat
# settings: Rattus norvegicus, Microglia, primary microglia HTS, fibrin stimulation, activation = cell size >800 μm2; read-out: Fibrin % inhibition
Where a name gives a salt, the structure may show the parent alone.
Classify by measured inhibition at 10 µM: rule met if it is equal to or exceeds -20%, rule not met if it is smaller.

{"columns": ["molecule", "class"],
 "data": [
  ["CC[C@@H](C(N)=O)N1CCCC1=O", "rule not met"],
  ["O=C(c1ccc(F)cc1)C1CCN(CCn2c(=O)[nH]c3ccccc3c2=O)CC1 [Ketanserin Tartrate]", "rule met"],
  ["CCC1=C(C)CN(C(=O)NCCc2ccc(S(=O)(=O)NC(=O)N[C@H]3CC[C@H](C)CC3)cc2)C1=O [Glimepiride]", "rule met"],
  ["CC1=C(/C=C/C(C)=C/C=C/C(C)=C/C(=O)Nc2ccc(O)cc2)C(C)(C)CCC1 [Fenretinide]", "rule not met"],
  ["COC(=O)C1=C(C)NC(C)=C(C(=O)OC(C)C)C1c1cccc2nonc12 (stereo not drawn)", "rule met"],
  ["O=[N+]([O-])O[C@@H]1CO[C@H]2[C@@H]1OC[C@@H]2O [Isosorbide Mononitrate]", "rule met"],
  ["CCCCCCc1ccc(O)cc1O", "rule met"],
  ["NC(=O)CCCCC1CCSS1 (stereo not drawn) [Lipoamide]", "rule met"],
  ["COc1ccccc1OCC(O)CO (stereo not drawn)", "rule met"],
  ["CC1CCc2cc(F)cc3c(=O)c(C(=O)O)cn1c23 (stereo not drawn)", "rule met"],
  ["CC(C)Oc1ccc2c(=O)c(-c3ccccc3)coc2c1", "rule not met"],
  ["CC(C)OC(=O)CCC/C=C\\C[C@@H]1[C@@H](CC[C@@H](O)CCc2ccccc2)[C@H](O)C[C@@H]1O", "rule met"],
  ["CNC1(c2ccccc2Cl)CCCCC1=O (stereo not drawn)", "rule not met"],
  ["O=C(O)c1ccc(S(=O)(=O)N(Cl)Cl)cc1", "rule met"],
  ["FC(F)(F)C(Cl)Br (stereo not drawn)", "rule met"],
  ["CN1[C@@H](CC(=O)c2ccccc2)CCC[C@H]1C[C@H](O)c1ccccc1", "rule not met"],
  ["N=C(N)N", "rule not met"],
  ["Cc1c(Nc2ncccc2C(=O)O)cccc1C(F)(F)F", "rule met"],
  ["Nc1nc(F)nc2c1ncn2[C@@H]1O[C@H](COP(=O)(O)O)[C@@H](O)[C@@H]1O [Fludarabine Phosphate]", "rule met"],
  ["O=C1NCC2(CCN(CCc3ccccc3)CC2)O1 [Fenspiride]", "rule not met"]
]}

###

# Tested on: primary rat microglia
# protocol_description: Cell toxicity (dead cells, size <150 μm2) in coated fibrin (cFib) assay;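 as to Fibrin % cell toxicity: share of dead cells sized under 150 µm2 at 10 µM in fibrin-stimulated microglia HTS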
# settings: primary microglia HTS, fibrin stimulation; decreased size (<150 μm^2) as marker of toxicity
Where a name gives a salt, the structure may show the parent alone.
readout_type: Fibrin % cell toxicity (%)

{"columns": ["molecule", "test_result"],
 "data": [
  ["CC(=O)O[C@H]1C[C@@]2(C)[C@@H](C[C@@H](O)[C@H]3[C@@]4(C)CC[C@@H](O)[C@@H](C)[C@@H]4CC[C@@]32C)/C1=C(\\CCC=C(C)C)C(=O)O [Fusidic acid, reference compound]", 1],
  ["Cc1cc(C)cc(OCC2CNC(=O)O2)c1 (stereo not drawn) [Metaxalone]", 1],
  ["NC(=O)C[S+]([O-])C(c1ccccc1)c1ccccc1 (stereo not drawn) [Modafinil]", 1],
  ["O=C(c1cccnc1)N1CCOCC1 [Nicopholine]", 0],
  ["CC(=O)OCC(=O)[C@@]1(OC(C)=O)[C@@H](C)C[C@H]2[C@@H]3C[C@H](F)C4=CC(=O)C=C[C@]4(C)[C@@]3(F)[C@@H](O)C[C@@]21C [Diflorasone diacetate, reference compound]", 1],
  ["[O-][n+]1cccc(CO)c1 [Mepiroxol]", 1],
  ["CC12CC3CC(C)(C1)CC(N)(C3)C2 [Memantine]", 0],
  ["CCCCC[C@H](O)/C=C/[C@H]1[C@H](O)CC(=O)[C@@H]1C/C=C\\CCCC(=O)O [Dinoprostone]", 9],
  ["CN(C)C(=O)Oc1cccc([N+](C)(C)C)c1 [Neostigmine]", 0],
  ["CC(C)c1nc(N(C)S(C)(=O)=O)nc(-c2ccc(F)cc2)c1/C=C/[C@@H](O)C[C@@H](O)CC(=O)O [Rosuvastatin, reference compound]", 2],
  ["C[n+]1cc2c3c(ccc2c2ccc4cc5c(cc4c21)OCO5)OCO3", 0],
  ["C[C@H]1[C@H](OC(=O)CCC(=O)O)O[C@@H]2O[C@@]3(C)CC[C@H]4[C@H](C)CC[C@@H]1[C@@]24OO3 [Artesunate, reference compound]", 1],
  ["CCCC(=O)O[C@]1(C(=O)CO)CC[C@H]2[C@@H]3CCC4=CC(=O)CC[C@]4(C)[C@H]3[C@@H](O)C[C@@]21C [Hydrocortisone butyrate, reference compound]", 2],
  ["CC(NCCc1ccc(O)cc1)C(O)c1ccc(O)cc1 (stereo not drawn) [Ritodrine hydrochloride, reference compound]", 1],
  ["CO[C@@H]1[C@@H](OC(N)=O)[C@@H](O)[C@H](Oc2ccc3c(O)c(NC(=O)c4ccc(O)c(CC=C(C)C)c4)c(=O)oc3c2C)OC1(C)C [Novobiocin]", 0],
  ["CC[C@H](C)C(=O)O[C@H]1CCC=C2C=C[C@H](C)[C@H](CC[C@@H]3C[C@@H](O)CC(=O)O3)[C@H]21 [Compactin, Mevastatin]", 3],
  ["CCc1nn(CCCN2CCN(c3cccc(Cl)c3)CC2)c(=O)n1CCOc1ccccc1 [Nefazodone]", 0],
  ["NC(=O)NC(=O)Cc1ccccc1 [Phenacemide]", 1],
  ["S=C=NCc1ccccc1 [Benzyl isothiocyanate, reference compound]", 2],
  ["O=C1C=C2C=C[C@@H]3C[C@@]2(O1)[C@H]1CCCCN31 [Securinine, reference compound]", 2],
  ["C[N+]1(C)[C@@H]2CC[C@H]1C[C@@H](OC(=O)C(CO)c1ccccc1)C2 (stereo partly drawn) [Methylatropine Nitrate]", 1],
  ["CCC(=O)O[C@]1(C(=O)CCl)[C@@H](C)C[C@H]2[C@@H]3CCC4=CC(=O)C=C[C@]4(C)[C@@]3(F)[C@@H](O)C[C@@]21C [Clobetasol propionate, reference compound]", 3],
  ["CCN(CCCCOC(=O)c1ccc(OC)c(OC)c1)C(C)Cc1ccc(OC)cc1 (stereo not drawn) [Mebeverine]", 0],
  ["Cc1ccc(Cl)c(Nc2ccccc2C(=O)O)c1Cl [Meclofenamic Acid]", 1],
  ["Clc1cc(Cl)c(OCC#CI)cc1Cl [Haloprogin]", 42],
  ["Cc1ccc(Nc2c(F)cccc2Cl)c(CC(=O)O)c1 [Lumiracoxib]", 1],
  ["NC(=O)c1ccc[n+]([C@@H]2O[C@H](COP(=O)([O-])OP(=O)(O)OC[C@H]3O[C@@H](n4cnc5c(N)ncnc54)[C@H](O)[C@@H]3O)[C@@H](O)[C@H]2O)c1 [Nadide]", 1]
]}

###

# protocol_description: in vitro
# settings: rat, Cell Toxicity IC50 (uM) [cFib assay], Table 3
// reported IC50 per item

{"columns": ["molecule", "IC50"],
 "data": [
  ["S=C=NCc1ccccc1 [Benzyl isothiocyanate, reference compound]", "> 20 µM"],
  ["O=c1[nH]cc(F)c(=O)[nH]1 [Fluorouracil, reference compound]", "> 20 µM"],
  ["CCOC(=O)O[C@]1(C(=O)COC(=O)CC)CC[C@H]2[C@@H]3CCC4=CC(=O)C=C[C@]4(C)[C@H]3[C@@H](O)C[C@@]21C [Prednicarbate, reference compound]", "> 20 µM"]
]}

###

# Tested on: primary rat microglia
# protocol_description: Cell toxicity (dead cells, size <150 μm2) in coated fibrin (cFib) assay;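 as to Fibrin % cell toxicity: share of dead cells sized under 150 µm2 at 10 µM in fibrin-stimulated microglia HTS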
# settings: primary microglia HTS, fibrin stimulation, toxicity = cell size <150 μm2

{"columns": ["compound", "unit_label", "Fibrin % cell toxicity"],
 "data": [
  ["O=C(NCC1CCCCN1)c1cc(OCC(F)(F)F)ccc1OCC(F)(F)F (stereo not drawn) [Flecainide]", "%", 0],
  ["CC(=O)[C@H]1CC[C@H]2[C@@H]3CC[C@H]4C[C@](C)(O)CC[C@]4(C)[C@H]3CC[C@]12C", "%", 1],
  ["N=C(N)NCC1COC2(CCCCC2)O1 (stereo not drawn)", "%", 1],
  ["COc1c2occc2c(OC)c2c(=O)cc(C)oc12", "%", 0],
  ["COc1c(N2CCNC(C)C2)c(F)cc2c(=O)c(C(=O)O)cn(C3CC3)c12 (stereo not drawn)", "%", 1],
  ["N=C(N)N", "%", 0],
  ["OC[C@@H](O)[C@@H](O[C@@H]1O[C@H](CO)[C@H](O)[C@H](O)[C@H]1O)[C@H](O)[C@@H](O)CO", "%", 1],
  ["CC(C)[N+](C)(CCC(C(N)=O)(c1ccccc1)c1ccccc1)C(C)C [Isopropamide]", "%", 0],
  ["Nc1nc(F)nc2c1ncn2[C@@H]1O[C@H](COP(=O)(O)O)[C@@H](O)[C@@H]1O [Fludarabine Phosphate]", "%", 1]
]}
